Reported Anti CCK-8 activity, ED50 by item:
- System: guinea pig gall bladder contracted with CCK-8
- method_description: Anti-CCK activity on guinea pig gall bladders in vitro
- Assay type: biochemical
- test_context: CCK-8 10 ng/ml, concentration antagonising 50% of contracting effect
# value in µg/mL; strip the unit string

Recorded results for 4 compounds are shown here.
query_smiles: CC(C)Cc1ccc(C(=O)N[C@@H](Cc2c[nH]c3ccccc23)C(=O)O)cc1
readout_unit: µg/mL
endpoint_result: 327.7
//
query_smiles: CCCCCCCc1ccc(C(=O)N[C@@H](Cc2c[nH]c3ccccc23)C(=O)O)cc1
readout_unit: µg/mL
endpoint_result: 148.5
//
query_smiles: O=C(N[C@@H](Cc1c[nH]c2ccccc12)C(=O)O)c1ccc(Cl)c(Cl)c1
readout_unit: µg/mL
endpoint_result: 398.0
//
query_smiles: CCc1ccc(C(=O)N[C@@H](Cc2c[nH]c3ccccc23)C(=O)O)cc1
readout_unit: µg/mL
endpoint_result: 135.2

Looking for the measured Anti CCK-8 activity, ED50 of O=C(N[C@@H](Cc1c[nH]c2ccccc12)C(=O)O)OCc1ccc(Cl)c(Cl)c1 , can you help?
16.1

Looking for the measured Anti CCK-8 activity, ED50 of Cc1ccc(COC(=O)N[C@@H](Cc2c[nH]c3ccccc23)C(=O)O)cc1Cl , can you help?
88.5

Looking for the measured Anti CCK-8 activity, ED50 of CCCCCc1ccc(C(=O)N[C@@H](Cc2c[nH]c3ccccc23)C(=O)O)cc1 , can you help?
103.8

Looking for the measured Anti CCK-8 activity, ED50 of O=C(N[C@@H](Cc1c[nH]c2ccccc12)C(=O)O)OCc1ccc(F)cc1 , can you help?
59.9

Looking for the measured Anti CCK-8 activity, ED50 of O=C(N[C@@H](Cc1c[nH]c2ccccc12)C(=O)O)c1ccc(F)cc1 , can you help?
233.2

Looking for the measured Anti CCK-8 activity, ED50 of O=C(N[C@@H](Cc1c[nH]c2ccccc12)C(=O)O)c1ccc(Cl)cc1 , can you help?
206.0

Looking for the measured Anti CCK-8 activity, ED50 of CCCCCCCCCc1ccc(C(=O)N[C@@H](Cc2c[nH]c3ccccc23)C(=O)O)cc1 , can you help?
18.9

Looking for the measured Anti CCK-8 activity, ED50 of O=C(N[C@@H](Cc1c[nH]c2ccccc12)C(=O)O)OC(c1ccccc1)c1ccccc1 , can you help?
76.3

Looking for the measured Anti CCK-8 activity, ED50 of O=C(N[C@@H](Cc1c[nH]c2ccccc12)C(=O)O)OCc1ccc(Br)cc1 , can you help?
33.6

Looking for the measured Anti CCK-8 activity, ED50 of O=C(N[C@@H](Cc1c[nH]c2ccccc12)C(=O)O)c1ccc(Br)cc1 , can you help?
158.0

Looking for the measured Anti CCK-8 activity, ED50 of N#Cc1ccc(COC(=O)N[C@@H](Cc2c[nH]c3ccccc23)C(=O)O)cc1 , can you help?
34.3

Looking for the measured Anti CCK-8 activity, ED50 of O=C(N[C@@H](Cc1c[nH]c2ccccc12)C(=O)O)OCc1ccc(I)cc1 , can you help?
48.2

Looking for the measured Anti CCK-8 activity, ED50 of Cc1ccc(COC(=O)N[C@@H](Cc2c[nH]c3ccccc23)C(=O)O)cc1 , can you help?
114.3

Looking for the measured Anti CCK-8 activity, ED50 of O=C(N[C@@H](Cc1c[nH]c2ccccc12)C(=O)O)OCc1ccc(Cl)cc1 , can you help?
13.5

Looking for the measured Anti CCK-8 activity, ED50 of CCc1ccc(COC(=O)N[C@@H](Cc2c[nH]c3ccccc23)C(=O)O)cc1 , can you help?
125.4

Looking for the measured Anti CCK-8 activity, ED50 of CCCc1ccc(C(=O)N[C@@H](Cc2c[nH]c3ccccc23)C(=O)O)cc1 , can you help?
25.7

Looking for the measured Anti CCK-8 activity, ED50 of O=C(N[C@@H](Cc1c[nH]c2ccccc12)C(=O)O)OCc1cccc(Cl)c1 , can you help?
23.2

Looking for the measured Anti CCK-8 activity, ED50 of O=C(N[C@@H](Cc1c[nH]c2ccccc12)C(=O)O)c1cccc(Cl)c1 , can you help?
197.5

Looking for the measured Anti CCK-8 activity, ED50 of CC(C)c1ccc(C(=O)N[C@@H](Cc2c[nH]c3ccccc23)C(=O)O)cc1 , can you help?
17.9

Looking for the measured Anti CCK-8 activity, ED50 of CCCCc1ccc(C(=O)N[C@@H](Cc2c[nH]c3ccccc23)C(=O)O)cc1 , can you help?
74.0

Looking for the measured Anti CCK-8 activity, ED50 of CCCCCCc1ccc(C(=O)N[C@@H](Cc2c[nH]c3ccccc23)C(=O)O)cc1 , can you help?
152.1

Looking for the measured Anti CCK-8 activity, ED50 of O=C(N[C@@H](Cc1c[nH]c2ccccc12)C(=O)O)OCc1ccc(C(F)(F)F)cc1 , can you help?
108.7
